Reference for the values: patent US20250250357A1

Provide the reported OD450 at none (no antibody) of each item.
Test Target: T1, human MSLN-R3-his protein (human, UniProt Q13421 487-598)
T1 construct: Region 3 of human MSLN, His-tagged; also called human MSLN-R3 protein; hMSLN-R3-his; not shown: His tag
T1 sequence (Q13421 495-606): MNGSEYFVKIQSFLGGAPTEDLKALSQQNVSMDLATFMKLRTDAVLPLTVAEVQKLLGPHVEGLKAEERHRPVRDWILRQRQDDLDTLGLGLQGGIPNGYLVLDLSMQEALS
Procedure Text: ELISA, coated MSLN-R3
Answers are plain numbers, in OD450.

Binder: S009-F1.62.9 (antibody, human IgG1, kappa, V domains shown, Human-murine chimeric antibody, human IgG1/kappa constant regions) VH: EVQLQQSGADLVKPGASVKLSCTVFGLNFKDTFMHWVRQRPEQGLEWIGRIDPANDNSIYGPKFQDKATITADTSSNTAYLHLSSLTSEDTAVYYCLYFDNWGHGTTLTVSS VL: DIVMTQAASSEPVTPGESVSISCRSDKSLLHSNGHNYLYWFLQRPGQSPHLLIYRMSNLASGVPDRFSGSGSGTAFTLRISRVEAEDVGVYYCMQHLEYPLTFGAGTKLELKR
U: OD450
Recorded Result: 0.05

Please find the next binder below.
Lookup: # query: OD450 at none (no antibody) of entry S009-F1.25.10 (antibody, human IgG1, kappa, V domains shown, Human-murine chimeric antibody, human IgG1/kappa constant regions) VH: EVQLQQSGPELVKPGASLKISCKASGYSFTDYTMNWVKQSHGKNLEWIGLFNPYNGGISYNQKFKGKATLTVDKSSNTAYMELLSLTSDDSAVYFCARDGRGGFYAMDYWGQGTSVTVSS VL: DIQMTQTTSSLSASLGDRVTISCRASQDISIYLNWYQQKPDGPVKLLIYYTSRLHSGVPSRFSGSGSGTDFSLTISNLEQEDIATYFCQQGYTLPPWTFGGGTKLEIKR
Found: 0.05
